Give measured spec. act. for each item. Keep answers brief.
tested on: serine acetyltransferase; assay: Serine acetyltransferase enzyme activity test with and without L-cysteine (inhibitor constant Ki, specific activity); type: biochemical, E. coli; conditions: Table 1b; carboxyterminal deletions
Numbers only, in μmol/min x mg.

Briefly, spec. act. measured for cysE-Del258: carboxyterminal deletion of 15 amino acids, terminal Gln258 (protein, UniProt P0A9D4 1-258, looked up, fragment) MSCEELEIVWNNIKAEARTLADCEPMLASFYHATLLKHENLGSALSYMLANKLSSPIMPAIAIREVVEEAYAADPEMIASAACDIQAVRTRDPAVDKYSTPLLYLKGFHALQAYRIGHWLWNQGRRALAIFLQNQVSVTFQVDIHPAAKIGRGIMLDHATGIVVGETAVIENDVSILQSVTLGGTGKSGGDRHPKIREGVMIGAGAKILGNIEVGRGAKIGAGSVVLQPVPPHTTAAGVPARIVGKPDSDKPSMDMDQ : 0.256

Turning now to a further record.
Briefly, spec. act. measured for cysE-Del259: carboxyterminal deletion of 14 amino acids, terminal His259 (protein, UniProt P0A9D4 1-259, looked up, fragment) MSCEELEIVWNNIKAEARTLADCEPMLASFYHATLLKHENLGSALSYMLANKLSSPIMPAIAIREVVEEAYAADPEMIASAACDIQAVRTRDPAVDKYSTPLLYLKGFHALQAYRIGHWLWNQGRRALAIFLQNQVSVTFQVDIHPAAKIGRGIMLDHATGIVVGETAVIENDVSILQSVTLGGTGKSGGDRHPKIREGVMIGAGAKILGNIEVGRGAKIGAGSVVLQPVPPHTTAAGVPARIVGKPDSDKPSMDMDQH : 0.328
